Hi there, I'd appreciate the recorded fraction unbound at 4 h for every entry that follows.
METHOD: Fraction unbound in rat plasma after 4 hrs by equilibrium dialysis method
Type: ADME, cell-free
Answers are plain numbers.

Here is how some molecules turned out for fraction unbound at 4 h.
1) COc1ccc(-c2cc(C(N)=O)nc3cc(COc4cnc(C)nc4)sc23)cc1
0.02
2) NC(=O)c1cc(-c2ccc(F)cc2)n2nc(COc3ccnc(C(F)(F)F)c3)cc2n1
0.03
3) NC(=O)c1cc(-c2ccc(F)cc2)n2nc(CCc3ccnc(C(F)(F)F)c3)cc2n1
0.04
4) C[C@@H]1CN(Cc2cc3nc(C(N)=O)cc(-c4ccc(F)cc4)c3s2)C[C@H](C)O1
0.05

Proceeding to the next molecule to report its fraction unbound at 4 h.
Lab note: measured fraction unbound at 4 h of Cc1ccc(OCc2cc3nc(C(N)=O)cc(-c4ccc(F)cc4)c3s2)cn1 was 0.02

====

TARGET SYSTEM: Metabotropic glutamate receptor 5 (Homo sapiens)
Sequence (P41594 whole entry): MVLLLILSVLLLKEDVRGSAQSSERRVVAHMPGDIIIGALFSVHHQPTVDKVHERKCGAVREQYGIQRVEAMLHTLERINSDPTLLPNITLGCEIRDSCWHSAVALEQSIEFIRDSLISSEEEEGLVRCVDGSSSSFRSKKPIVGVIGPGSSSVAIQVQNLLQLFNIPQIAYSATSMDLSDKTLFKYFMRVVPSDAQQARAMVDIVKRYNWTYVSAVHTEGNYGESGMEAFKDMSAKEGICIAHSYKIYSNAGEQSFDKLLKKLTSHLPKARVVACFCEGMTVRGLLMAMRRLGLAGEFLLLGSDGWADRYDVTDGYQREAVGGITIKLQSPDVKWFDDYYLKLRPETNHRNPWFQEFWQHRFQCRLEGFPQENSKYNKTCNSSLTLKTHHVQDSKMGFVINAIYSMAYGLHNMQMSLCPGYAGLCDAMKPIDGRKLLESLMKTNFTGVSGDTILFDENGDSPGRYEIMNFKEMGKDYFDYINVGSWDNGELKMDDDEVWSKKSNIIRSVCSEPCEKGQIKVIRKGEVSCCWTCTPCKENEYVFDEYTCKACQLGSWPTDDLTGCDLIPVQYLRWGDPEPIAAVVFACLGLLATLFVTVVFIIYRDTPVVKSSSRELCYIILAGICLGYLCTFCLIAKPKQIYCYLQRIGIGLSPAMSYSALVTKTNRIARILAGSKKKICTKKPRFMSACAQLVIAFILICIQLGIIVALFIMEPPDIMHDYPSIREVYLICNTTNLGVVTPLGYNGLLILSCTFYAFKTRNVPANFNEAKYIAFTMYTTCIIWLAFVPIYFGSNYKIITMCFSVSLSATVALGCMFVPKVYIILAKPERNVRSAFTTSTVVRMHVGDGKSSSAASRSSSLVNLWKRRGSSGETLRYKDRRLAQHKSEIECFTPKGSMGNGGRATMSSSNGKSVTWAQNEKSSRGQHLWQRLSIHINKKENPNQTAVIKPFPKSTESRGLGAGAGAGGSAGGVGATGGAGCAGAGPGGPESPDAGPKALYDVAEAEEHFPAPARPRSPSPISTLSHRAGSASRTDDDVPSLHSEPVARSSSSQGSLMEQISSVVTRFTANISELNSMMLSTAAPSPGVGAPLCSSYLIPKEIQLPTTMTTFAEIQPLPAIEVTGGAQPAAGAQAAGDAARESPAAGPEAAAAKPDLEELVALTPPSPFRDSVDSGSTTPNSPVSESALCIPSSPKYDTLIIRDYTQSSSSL
METHOD: Negative allosteric modulation of mGlu5R (unknown origin)
MEASURE: IC50

Lab note: measured IC50 of Cn1ccc(COc2cnc(C(N)=O)cc2-c2ccc(F)cc2)n1 was > 30 µM

====

TARGET SYSTEM: Metabotropic glutamate receptor 2 (Rattus norvegicus) (UniProt P31421)
Sequence (P31421 19-872 limits assumed): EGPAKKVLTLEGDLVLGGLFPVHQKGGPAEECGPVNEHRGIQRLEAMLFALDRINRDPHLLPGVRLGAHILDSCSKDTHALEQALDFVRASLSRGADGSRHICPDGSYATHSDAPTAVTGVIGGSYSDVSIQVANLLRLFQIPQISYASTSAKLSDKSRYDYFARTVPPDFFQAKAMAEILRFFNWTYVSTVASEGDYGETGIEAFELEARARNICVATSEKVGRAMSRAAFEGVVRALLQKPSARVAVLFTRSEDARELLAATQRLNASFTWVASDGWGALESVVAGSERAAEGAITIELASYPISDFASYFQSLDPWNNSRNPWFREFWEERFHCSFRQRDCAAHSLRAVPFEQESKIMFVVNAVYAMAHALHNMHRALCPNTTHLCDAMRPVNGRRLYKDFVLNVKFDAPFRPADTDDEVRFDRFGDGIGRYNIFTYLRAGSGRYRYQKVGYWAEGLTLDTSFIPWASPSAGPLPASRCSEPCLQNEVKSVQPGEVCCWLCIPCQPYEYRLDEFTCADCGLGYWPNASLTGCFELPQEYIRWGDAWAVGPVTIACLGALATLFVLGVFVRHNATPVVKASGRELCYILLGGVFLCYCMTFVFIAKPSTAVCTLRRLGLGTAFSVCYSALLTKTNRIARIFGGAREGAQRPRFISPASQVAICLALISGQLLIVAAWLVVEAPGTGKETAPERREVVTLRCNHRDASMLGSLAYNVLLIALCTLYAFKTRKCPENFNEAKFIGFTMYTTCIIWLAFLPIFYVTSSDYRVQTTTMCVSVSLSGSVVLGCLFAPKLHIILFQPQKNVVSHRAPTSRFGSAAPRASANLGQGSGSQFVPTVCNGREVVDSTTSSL
METHOD: Negative allosteric modulation of rat mGlu2R expressed in HEK293 cells co-expressing Galpha15 assessed as decrease in glutamate-induced calcium mobilization at 30 uM preincubated for 2.3 mins followed by glutamate addition and measured after 1.7 mins by Fluo-4-AM dye based fluorescence assay relative to control
Format: functional, cell-based
Hi there, I'd appreciate the recorded Emax for every entry that follows.
Numbers only, in %.

Here is how some compounds turned out for Emax.
1. COc1ccc(-c2cc(C(N)=O)nc3cc(COc4cnc(C)nc4)sc23)cc1
2.6
2. Cc1ccc(OCc2cc3nc(C(N)=O)cc(-c4ccc(F)cc4)c3s2)cn1
2.2
3. COc1ccc(-c2cc(C(N)=O)nc3cc(COc4ccc(F)nc4)sc23)cc1
7.2

Take each entry in turn and give its Emax.
1. COc1ccc(OCc2cc3nc(C(N)=O)cc(-c4ccc(F)cc4)c3s2)cn1
2. NC(=O)c1cc(-c2ccc(F)cc2)c2sc(COc3ccc(Cl)nc3)cc2n1
3. Cc1ncccc1OCc1cc2nc(C(N)=O)cc(-c3ccc(F)cc3)c2s1
4. COc1ccc(-c2cc(C(N)=O)nc3cc(CN4CCOCC4)sc23)c(F)c1
5. NC(=O)c1cc(-c2ccc(F)cc2)c2sc(COc3ccc(F)nc3)cc2n1

Given back:
16.8
29.3
3.2
2.3
13.2

Take each entry in turn and give its Emax.
1. NC(=O)c1cc(-c2ccc(F)cc2)c2sc(CN3CCCCC3)cc2n1
2. NC(=O)c1cc(-c2ccc(F)cc2)c2sc(CN3CCOCC3)cc2n1

Given back:
1: 2.2; 2: 2.9

====

METHOD: Half life in Sprague-Dawley rat at 0.2 mg/kg, iv administered as cassette dose by LC-MS/MS analysis
Assay type: ADME, organism-based
MEASUREMENT SETUP: Sprague-Dawley, in vivo
Hi there, I'd appreciate the recorded half-life for every entry that follows.
Enter the number, and then the unit.

1) COc1ccc(-c2cc(C(N)=O)nc3cc(COc4cnc(C)nc4)sc23)cc1
14.3 min

Proceeding to the next compound to report its half-life.
Lab note: measured half-life of NC(=O)c1cc(-c2ccc(F)cc2)n2nc(COc3ccnc(C(F)(F)F)c3)cc2n1 was 257 min
